# Experimental target: USP30 (Homo sapiens (Human), UniProt Q70CQ3)
# Sequence (Q70CQ3 57-517): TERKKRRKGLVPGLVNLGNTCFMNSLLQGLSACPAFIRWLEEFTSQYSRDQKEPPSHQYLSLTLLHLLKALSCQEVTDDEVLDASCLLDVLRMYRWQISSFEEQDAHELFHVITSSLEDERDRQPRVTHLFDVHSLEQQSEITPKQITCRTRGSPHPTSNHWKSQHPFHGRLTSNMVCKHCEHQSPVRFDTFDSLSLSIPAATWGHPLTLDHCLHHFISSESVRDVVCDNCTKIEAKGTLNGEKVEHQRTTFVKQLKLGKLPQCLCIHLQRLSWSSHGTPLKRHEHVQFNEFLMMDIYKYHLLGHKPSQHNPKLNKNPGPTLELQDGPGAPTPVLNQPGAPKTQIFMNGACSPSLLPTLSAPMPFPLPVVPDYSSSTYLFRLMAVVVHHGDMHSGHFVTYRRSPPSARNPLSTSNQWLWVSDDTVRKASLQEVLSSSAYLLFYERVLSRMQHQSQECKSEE
Reported property: IC50

// solved cases for IC50 follow
[[record]]
compound = "N#Cc1cc(-c2ccc(N3CCO[C@H]4CN(C#N)C[C@H]43)nc2)ccn1 (single isomer, unassigned)"
reported_property = "IC50"
result = "10 to 100 nM"

[[record]]
compound = "N#CN1C[C@@H]2OCCN(c3cccc(-c4ccccc4)n3)[C@@H]2C1 (relative stereo)"
reported_property = "IC50"
result = "100 to 1000 nM"

[[record]]
compound = "N#CN1C[C@@H]2OCCN(c3nccc(-c4ccccc4)n3)[C@@H]2C1 (relative stereo)"
reported_property = "IC50"
result = "100 to 1000 nM"


### Prompt For the compound N#CN1C[C@H]2CCN(c3nc4ccc(OC(F)(F)F)cc4[nH]3)[C@H]2C1 , report IC50.
### Response 10 to 100 nM

### Prompt Please look at this compound and report its IC50: CN(c1ccc(-c2ccccc2)cn1)C1CCN(C#N)C1 (stereo not drawn)
### Response 1000 to 10000 nM

### Prompt Read the entry N#CN1CC2CCCN(c3ncc(-c4ccccc4)s3)C2C1 (stereo not drawn) and write its reported IC50.
### Response 1000 to 10000 nM

### Prompt State its IC50: N#Cc1cc(-c2ccc(N3CCO[C@H]4CN(C#N)C[C@H]43)nn2)ccn1 (single isomer, unassigned)
### Response 100 to 1000 nM

### Prompt Indicate the recorded IC50 value for this compound: N#CN1C[C@@H]2OCCN(c3nc4ccc(F)cc4s3)[C@@H]2C1 (relative stereo)
### Response 1000 to 10000 nM

### Prompt Look up and report measured IC50 for this entry: N#Cc1cccc(-c2cnc(N3CCO[C@@H]4CN(C#N)C[C@@H]43)nc2)c1 (racemic)
### Response 1 to 10 nM

### Prompt Return reported IC50. Input compound: N#Cc1cccc(-c2cccnc2N2CCO[C@H]3CN(C#N)C[C@H]32)c1 (racemic)
### Response 1 to 10 nM

### Prompt Provide IC50 value for the following compound: N#Cc1cccc(-c2ccc(N3CCO[C@@H]4CN(C#N)C[C@@H]43)nc2)n1 (racemic)
### Response 10 to 100 nM

### Prompt Give IC50 for COc1ccc2nc(N3CC[C@@H]4CN(C#N)C[C@@H]43)[nH]c2c1
### Response 100 to 1000 nM
